- Test system: PC-3 prostate
- ASSAY_INFO: NCI tumour cell line growth inhibition, 48 h
Could you please report measured TGI for the items listed next?

Guide cases for TGI, answers given:
Clc1ccc(-c2nn3c(CCCCCCCCc4nnc5sc(-c6ccc(Cl)cc6)nn45)nnc3s2)cc1
69.7 µM
CC(C)=CCC[C@]1(C)CC[C@]2(C)C3CCC(=C(C)C)[C@@H](CCCO)[C@]3(C)CC[C@@]2(C)C1 (some centres undefined)
> 100 µM

The following compounds each have a reported value; give each one's TGI.
1. OCCN(CCO)N=Nc1ccc(-c2nc3ccccc3[nH]2)cc1
2. CC(C)(C)OC(=O)[N+](=N)C(=O)C1CCC(=O)N1C(=O)OCc1ccccc1 (centres undefined)
3. CCN(CC)C(=S)SS(=O)(=O)c1ccccc1C(=O)O
4. CCN1C(=O)C/C(=C\C(C)=O)Nc2ccccc21
5. CCN(CC)c1ccc(/C=C(\C#N)c2nc(N)nc(N3N=C(C)CC3(C)C)n2)cc1
6. O=C(Nc1ccc(-c2nc3cc4ccccc4cc3[nH]2)cc1)c1cccc(Br)c1

A:
> 100 µM
> 100 µM
> 100 µM
> 100 µM
> 100 µM
13.4 µM

List the reported TGI of each compound below.
1. CC/C=C\C[C@H](O)C/C=C1/C(=O)C=C[C@@H]1C/C=C\CCCC(=O)NC(C)C
2. CC(=O)N=C(N=Nc1c(O)[nH]c2ccc(C)cc12)NC(C)=O
3. CCOP(=O)(OCC)C(NC(=O)OCC(Cl)(Cl)Cl)n1nnc(C(=O)OC)c1C(=O)OC (centres undefined)
4. Nc1ccccc1C#CC#Cc1ccccc1N
5. COc1cccc(-c2nn(-c3ccccc3)cc2-c2ccnc(NCCNS(=O)(=O)c3ccc(Cl)cc3)c2)c1
6. OC1(c2ccccc2)CC2CCC(C1)N2CCc1ccccc1 (centres undefined)

A:
1: 6.24 µM; 2: > 100 µM; 3: > 100 µM; 4: > 100 µM; 5: > 100 µM; 6: > 100 µM
